Each item that follows carries a reported lipid accumulation.
tested on: 3T3-L1 pre-adipocytes; test: Differentiation of 3T3-L1 cells, lipid quantification by Oil Red O staining; assay type: cell-based, Mouse; conditions: 1 μM, absence of insulin, ORO stain, day 11
Quick reminder: number only, in %, skip the unit.

Consider the following illustrative entries.
>>> df
                               smiles_entry     outcome_measure  measure_unit  value_observed
0               O=C1C=CC(=O)c2c(O)ccc(O)c21  lipid accumulation             %            5.74
1  CC(C)=CC[C@@H](OC(=O)C=C(C)C)C1=CC(=O)c2c(O)ccc(O)c2C1=O  lipid accumulation             %           15.65
2  CC(C)=CC[C@H](O)C1=CC(=O)c2c(O)ccc(O)c2C1=O  lipid accumulation             %            1.56

Input: # query: lipid accumulation of entry CC(C)=CC[C@@H](O)C1=CC(=O)c2c(O)ccc(O)c2C1=O
Output: 2.58

Input: # query: lipid accumulation of entry CC(C)=CCCC1=CC(=O)c2c(O)ccc(O)c2C1=O
Output: 1.78

###

experiment: Cell viability of undifferentiated 3T3-L1 cells (CellTiter-Glo); type: cell-based, Mouse; settings: mouse; 0.01, 0.1, and 1 μM, 24 h; read-out: cell viability (% of untreated cells)
Outcome Measure: viability

                               smiles_entry  outcome_measure  value_observed
0  CC(C)=CC[C@H](O)C1=CC(=O)c2c(O)ccc(O)c2C1=O        viability          > 146%

In the following, a different compound is considered.
Input: # query: viability of entry CC(C)=CC[C@@H](O)C1=CC(=O)c2c(O)ccc(O)c2C1=O
Output: > 146%

###

tested on: PPAR-γ; assay: RT-PCR relative mRNA expression of PPAR-γ in differentiated 3T3-L1 cells; type: cell-based, Mouse; details: compound together with insulin, day 11
Outcome Measure: PPAR-γ mRNA expression, fold increase (fold)
Quick reminder: number only, in fold, skip the unit.

Input: # query: PPAR-γ mRNA expression, fold increase of entry CC(C)=CC[C@@H](O)C1=CC(=O)c2c(O)ccc(O)c2C1=O [S, Shikonin]
Output: 1.27

###

tested on: ADIPOQ; test: RT-PCR relative mRNA expression of ADIPOQ in differentiated 3T3-L1 cells; assay type: cell-based, Mouse; details: compound together with insulin, day 11
Outcome Measure: ADIPOQ mRNA expression, fold increase (fold)
Quick reminder: number only, in fold, skip the unit.

In [3]: df
Out[3]:
                  smiles_entry                        outcome_measure  value_observed
0  O=C1C=CC(=O)c2c(O)ccc(O)c21  ADIPOQ mRNA expression, fold increase            2.13

Input: # query: ADIPOQ mRNA expression, fold increase of entry CC(C)=CCCC1=CC(=O)c2c(O)ccc(O)c2C1=O
Output: 4.85

Input: # query: ADIPOQ mRNA expression, fold increase of entry CC(C)=CC[C@@H](OC(=O)C=C(C)C)C1=CC(=O)c2c(O)ccc(O)c2C1=O
Output: 3.24

###

system: PPAR-γ; assay: RT-PCR relative mRNA expression of PPAR-γ in differentiated 3T3-L1 cells; format: cell-based, Mouse; conditions: compound together with insulin, day 11
Each item that follows carries a reported PPAR-γ mRNA expression, fold increase.
Quick reminder: number only, in fold, skip the unit.

Consider the following illustrative entries.
In [3]: df
Out[3]:
                                   compound  target_under_test  value_observed
0  CC(C)=CC[C@H](O)C1=CC(=O)c2c(O)ccc(O)c2C1=O [A, Alkannin]             PPAR-γ            0.20
1  O=C1C=CC(=O)c2c(O)ccc(O)c21 [NAPH, Naphthazarin]             PPAR-γ             5.2
2  CC(C)=CCCC1=CC(=O)c2c(O)ccc(O)c2C1=O [DS, Deoxy-shikonin]             PPAR-γ            5.08

Input: # query: PPAR-γ mRNA expression, fold increase of entry CC(C)=CC[C@@H](OC(=O)C=C(C)C)C1=CC(=O)c2c(O)ccc(O)c2C1=O [DMAS, β,β-Dimethyl-acryl-shikonin]
Output: 4.71
